src = patent US8058437B2

Assay: Pharmacokinetic experiments in rats (IV, oral suspension, oral solution)
Format: in vivo
Settings: male, rat, plasma, oral, 20 mg/kg, Group 3, PO-Suspension 20 mg/kg, 4 hr, Mean
Method: The oral suspension formulation was prepared by suspending the test article in 5% PEG-200/95% of a 0.5% solution of methylcellulose. The concentration of the test article was such that a dosing volume of 10 mL/kg delivered the intended dose level. […] The whole blood samples were centrifuged (˜1500×g) for a minimum of 10 minutes in a refrigerated centrifuge (set at ˜5° C.). […] The plasma samples were analyzed by LC-MS/MS to determine the plasma concentrations of NVX-144 and NVX-412. […]
measure: concentration at 4 h (ng/mL)
Answer format: numeric, ng/mL implied, no suffix.

concentration at 4 h for "O=C(NNc1nc2cc(F)ccc2n2cccc12)c1cnccn1.O=C(O)C(=O)O" is 257

###

Test: Pharmacokinetic experiments in rats (IV, oral suspension, oral solution)
Type: in vivo
Settings: male, rat, plasma, oral, 20 mg/kg, Group 4, PO-Solution 20 mg/kg, 1 hr, individual animals
Procedure: The oral suspension formulation was prepared by suspending the test article in 5% PEG-200/95% of a 0.5% solution of methylcellulose. The concentration of the test article was such that a dosing volume of 10 mL/kg delivered the intended dose level. […] The whole blood samples were centrifuged (˜1500×g) for a minimum of 10 minutes in a refrigerated centrifuge (set at ˜5° C.). […] The plasma samples were analyzed by LC-MS/MS to determine the plasma concentrations of NVX-144 and NVX-412. […]
measure: concentration at 1 h (ng/mL)
Just the number in ng/mL, nothing appended.

Entry O=C(NNc1nc2cc(F)ccc2n2cccc12)c1cnccn1 [NVX-144, reference compound] — recorded concentration at 1 h = 570

###

Assay: Pharmacokinetic experiments in rats (IV, oral suspension, oral solution)
Format: in vivo
Conditions: male, rat, plasma, po, 20 mg/kg, Group 3, PO-Suspension 20 mg/kg, Mean N=3, read-out: Tmax
measure: Tmax (h)
Entry rule: numbers only, all in h.

// Tmax value for "O=C(NNc1nc2cc(F)ccc2n2cccc12)c1cnccn1.O=C(O)C(=O)O" : 1

###

Assay: Pharmacokinetic experiments in rats (IV, oral suspension, oral solution)
Format: in vivo
Conditions: male, rat, plasma, oral, 20 mg/kg, Group 4, PO-Solution 20 mg/kg, 4 hr, individual animals
measure: concentration at 4 h (ng/mL)
The reply should be a number in ng/mL, with the unit left off.

Given item O=C(NNc1nc2cc(F)ccc2n2cccc12)c1cnccn1 [NVX-144, reference compound] , the value recorded as its concentration at 4 h is 289

###

Test: Pharmacokinetic experiments in rats (IV, oral suspension, oral solution)
Format: in vivo
Conditions: male, rat, plasma, iv, 5 mg/kg, IV 5 mg/kg, individual animals, read-out: T ½ (converted)
measure: half-life (h)
Number only, in h; omit the unit.

Entry O=C(NNc1nc2cc(F)ccc2n2cccc12)c1cnccn1.O=C(O)C(=O)O [NVX-412] , half-life reported as 1.01

###

Assay: Pharmacokinetic experiments in rats (IV, oral suspension, oral solution)
Format: in vivo
Conditions: male, rat, plasma, iv, 5 mg/kg, IV 5 mg/kg, individual animals
measure: AUC (ng·h/mL)
Give just the numeric value; ng·h/mL need not be written.

# AUC (compound: O=C(NNc1nc2cc(F)ccc2n2cccc12)c1cnccn1.O=C(O)C(=O)O [NVX-412] ) is 1070

###

Experiment: Pharmacokinetic experiments in rats (IV, oral suspension, oral solution)
Type: in vivo
Settings: male, rat, plasma, oral, 20 mg/kg, Group 2, PO-Suspension 20 mg/kg, 4 hr, individual animals
measure: concentration at 4 h (ng/mL)
Value expressed in ng/mL; do not type the unit.

Documented concentration at 4 h of O=C(NNc1nc2cc(F)ccc2n2cccc12)c1cnccn1 [NVX-144, reference compound] : 270

###

Test: Pharmacokinetic experiments in rats (IV, oral suspension, oral solution)
Assay type: in vivo
Details: male, rat, plasma, oral, 20 mg/kg, Group 2, PO-Suspension 20 mg/kg, 1 hr, Mean
measure: concentration at 1 h (ng/mL)
Please give a number only; it is taken to be in ng/mL.

Entry O=C(NNc1nc2cc(F)ccc2n2cccc12)c1cnccn1 [NVX-144, reference compound] ; concentration at 1 h = 427

###

Experiment: Pharmacokinetic experiments in rats (IV, oral suspension, oral solution)
Type: in vivo
Conditions: male, rat, plasma, po, 20 mg/kg, Group 4, PO-Solution 20 mg/kg, Mean N=3, versus mean IV AUCINF, adjusted for dose, read-out: Bioavailability
measure: bioavailability (%)
The reply should be a number in %, with the unit left off.

Entry O=C(NNc1nc2cc(F)ccc2n2cccc12)c1cnccn1 [NVX-144, reference compound] , bioavailability reported as 46.1

###

Assay: Pharmacokinetic experiments in rats (IV, oral suspension, oral solution)
Format: in vivo
Conditions: male, rat, plasma, po, 20 mg/kg, Group 4, PO-Solution 20 mg/kg, individual animals, versus mean IV AUCINF, adjusted for dose, read-out: Bioavailability
measure: bioavailability (%)
Answer in %, number only, no unit symbol.

Memo: O=C(NNc1nc2cc(F)ccc2n2cccc12)c1cnccn1 [NVX-144, reference compound] , reported bioavailability: 52.6

###

Assay: Pharmacokinetic experiments in rats (IV, oral suspension, oral solution)
Assay type: in vivo
Settings: male, rat, plasma, po, 20 mg/kg, Group 3, PO-Suspension 20 mg/kg, Mean N=3, read-out: Cmax
measure: Cmax (ng/mL)
Give the value, in units of ng/mL, as a plain number.

The reported value for "O=C(NNc1nc2cc(F)ccc2n2cccc12)c1cnccn1.O=C(O)C(=O)O" in terms of Cmax is 525

###

Assay: Pharmacokinetic experiments in rats (IV, oral suspension, oral solution)
Type: in vivo
Settings: male, rat, plasma, oral, 20 mg/kg, Group 2, PO-Suspension 20 mg/kg, 0.5 hr, individual animals
measure: concentration at 0.5 h

Briefly, concentration at 0.5 h measured for O=C(NNc1nc2cc(F)ccc2n2cccc12)c1cnccn1 [NVX-144, reference compound] : 436 ng/mL

###

Test: Pharmacokinetic experiments in rats (IV, oral suspension, oral solution)
Format: in vivo
Details: male, rat, plasma, iv, 5 mg/kg, IV 5 mg/kg, 0.5 h, Mean of 3
measure: concentration at 0.5 h (ng/mL)
Write the value in ng/mL as a bare number.

Looking up "O=C(NNc1nc2cc(F)ccc2n2cccc12)c1cnccn1.O=C(O)C(=O)O" , I found its concentration at 0.5 h recorded as 477

###

Assay: Pharmacokinetic experiments in rats (IV, oral suspension, oral solution)
Assay type: in vivo
Conditions: male, rat, plasma, po, 20 mg/kg, Group 3, PO-Suspension 20 mg/kg, Mean N=2
measure: AUC(0-inf) (ng·h/mL)
The answer is to be given in ng·h/mL; state only the numeric part.

Entry "O=C(NNc1nc2cc(F)ccc2n2cccc12)c1cnccn1.O=C(O)C(=O)O" , AUC(0-inf) reported as 2310

###

Test: Pharmacokinetic experiments in rats (IV, oral suspension, oral solution)
Assay type: in vivo
Settings: male, rat, plasma, po, 20 mg/kg, Group 5, PO-Solution 20 mg/kg, individual animals, versus mean IV AUCINF, adjusted for dose, read-out: Bioavailability
measure: bioavailability (%)
The reply should be a number in %, with the unit left off.

# bioavailability (molecule: "O=C(NNc1nc2cc(F)ccc2n2cccc12)c1cnccn1.O=C(O)C(=O)O" ) is 45.7

###

Experiment: Pharmacokinetic experiments in rats (IV, oral suspension, oral solution)
Assay type: in vivo
Details: male, rat, plasma, iv, 5 mg/kg, IV 5 mg/kg, 1 h, Mean of 3
measure: concentration at 1 h (ng/mL)
Respond with the bare value in ng/mL.

Just so you know, measured concentration at 1 h for "O=C(NNc1nc2cc(F)ccc2n2cccc12)c1cnccn1.O=C(O)C(=O)O" came out at 273

###

Assay: Pharmacokinetic experiments in rats (IV, oral suspension, oral solution)
Type: in vivo
Conditions: male, rat, plasma, po, 20 mg/kg, Group 5, PO-Solution 20 mg/kg, individual animals
Protocol: The oral suspension formulation was prepared by suspending the test article in 5% PEG-200/95% of a 0.5% solution of methylcellulose. The concentration of the test article was such that a dosing volume of 10 mL/kg delivered the intended dose level. […] The whole blood samples were centrifuged (˜1500×g) for a minimum of 10 minutes in a refrigerated centrifuge (set at ˜5° C.). […] The plasma samples were analyzed by LC-MS/MS to determine the plasma concentrations of NVX-144 and NVX-412. […]
measure: AUC (ng·h/mL)
Write the value in ng·h/mL as a bare number.

For record O=C(NNc1nc2cc(F)ccc2n2cccc12)c1cnccn1.O=C(O)C(=O)O [NVX-412] the listed AUC is 2390

###

Assay: Pharmacokinetic experiments in rats (IV, oral suspension, oral solution)
Assay type: in vivo
Details: male, rat, plasma, iv, 5 mg/kg, IV 5 mg/kg, individual animals
measure: AUC(0-inf) (ng·h/mL)
The answer is to be given in ng·h/mL; state only the numeric part.

According to the records, this compound O=C(NNc1nc2cc(F)ccc2n2cccc12)c1cnccn1.O=C(O)C(=O)O [NVX-412] displays AUC(0-inf) of 1320
